molecular target: 3T3 cells (Mus musculus); experiment: PGE2 induction in 3T3 fibroblasts (ELISA); conditions: 7 min, serum-free medium
Sequence (P32299 whole entry): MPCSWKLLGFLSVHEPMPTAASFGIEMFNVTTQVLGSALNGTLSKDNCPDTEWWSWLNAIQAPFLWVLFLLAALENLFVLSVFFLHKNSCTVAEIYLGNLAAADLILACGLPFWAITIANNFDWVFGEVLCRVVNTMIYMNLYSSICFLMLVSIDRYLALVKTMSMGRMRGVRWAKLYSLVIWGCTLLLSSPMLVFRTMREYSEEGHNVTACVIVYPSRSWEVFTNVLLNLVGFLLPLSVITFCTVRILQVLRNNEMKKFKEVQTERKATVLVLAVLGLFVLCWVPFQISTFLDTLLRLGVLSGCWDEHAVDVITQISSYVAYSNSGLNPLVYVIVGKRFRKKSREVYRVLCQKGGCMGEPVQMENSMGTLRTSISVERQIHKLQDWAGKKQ
Numbered stars: 1 amine (or outer) side, 2 acyl side, 3 side chain; on linkers, the order of the positions; unused ones are H or OH. Square brackets hold non-standard residues; d marks the D form. Peptide text beside a SMILES is read from it. azaPhe = O=C(N(Cc1ccccc1)N[*:1])[*:2]; azaPro = O=C(N1CCCN1[*:1])[*:2]
Collected EC50 values appear next to each entry.
measured.parameter: EC50

INSERT INTO results (compound, measured_parameter, result) VALUES
  ('NC(N)=NCCC[C@H](NC(=O)[C@H](Cc1ccccc1)NC(=O)[C@@H]1CCCN1C(=O)[C@H](CO)NC(=O)[C@H](Cc1ccccc1)NC(=O)CNC(=O)[C@@H]1CCCN1C(=O)[C@@H]1CCCN1C(=O)[C@@H](N)CCCN=C(N)N)C(=O)O [Bradykinin, reference compound] (H-RPPGFSPFR-OH)', 'EC50', '44.4 nM'),
  ('N=C(N)NCCC[C@H](NC(=O)N(Cc1ccccc1)NC(=O)[C@@H]1CCCN1C(=O)[C@H](CO)NC(=O)[C@H](Cc1ccccc1)NC(=O)CNC(=O)[C@@H]1CCCN1C(=O)N1CCCN1C(=O)[C@@H](N)CCCNC(=N)N)C(=O)O [Compound 70, RazaP^2PGFSPazaF^8R] (H-R[azaPro]PGFSP[azaPhe]R-OH; N-terminus and C-terminus assumed)', 'EC50', '80.6 nM'),
  ('N=C(N)NCCC[C@H](NC(=O)[C@H](Cc1ccccc1)NC(=O)[C@@H]1CCCN1C(=O)[C@H](CO)NC(=O)[C@H](Cc1ccccc1)NC(=O)CNC(=O)[C@@H]1CCCN1C(=O)N1CCCN1C(=O)[C@@H](N)CCCNC(=N)N)C(=O)O [Compound 63, RazaP^2PGFSPFR] (H-R[azaPro]PGFSPFR-OH; N-terminus and C-terminus assumed)', 'EC50', '61.1 nM'),
  ('N=C(N)NCCC[C@H](NC(=O)N(Cc1ccccc1)NC(=O)[C@@H]1CCCN1C(=O)[C@H](CO)NC(=O)[C@H](Cc1ccccc1)NC(=O)CNC(=O)[C@@H]1CCCN1C(=O)[C@@H]1CCCN1C(=O)[C@@H](N)CCCNC(=N)N)C(=O)O [Compound 68, RPPGFSPazaF^8R] (H-RPPGFSP[azaPhe]R-OH; N-terminus and C-terminus assumed)', 'EC50', '99.6 nM');
